Data provenance: PubChem BioAssay (NCI)

# System: HCT-15 colon
# TEST_NAME: NCI-60 one-dose screen, 48 h (100 = growth as untreated, 0 = no growth, -100 = all killed)
# EXPERIMENTAL_PARAMETERS: 10 µM
# Description: Growth inhibition of the HCT-15 human tumor cell line is measured as a screen for anti-cancer activity. Cells are grown in 96 well plates and exposed to the test compound for 48 hours. Compounds are tested at a single concentration, which is 10^-5 M for most compounds. The reported endpoint is percent growth (GI% or GIPRCNT), where numbers from 0 - 100% represent growth inhibition, and numbers from -100% - 0 represent cell death. For example, a value of 40 represents 60% growth inhibition. […]
Compounds without any hit were thinned out: in the full panel of roughly 83,000, 20% have a hit.
Would you mind telling me the reported growth of each entry?
Numbers only, in %.

Here are 4 molecules together with their reported answers.
MOLECULE | EXPERIMENTAL_SYSTEM | growth [%]
C[CH2][Sn]([CH2]C)([CH2]C)[NH]S(=O)(=O)c1ccc(C)cc1 | HCT-15 colon | 96.5
O=S(=O)(Cl)c1ccccc1 (tested in a mixture with another compound) | HCT-15 colon | 101
CC1(CF)NC(=O)NC1=O (stereo unspecified) | HCT-15 colon | 105
C[CH2][Pb]([CH2]C)([CH2]C)[O]C(=O)c1ccc(N)cc1 | HCT-15 colon | 66.1

Would you mind giving growth for every molecule in the list below?
1. COc1ccc(/C=C\c2cc(OC)c(OC)c(OC)c2)cc1N/C=C\C(=O)c1c[nH]c2ccccc12
2. C=CCC1(CC)C(=O)NC(=S)NC1=O
3. CC12CCC(=O)C=C1CCC1C2CCC2(C)C(C(=O)COC(=O)Cc3ccc(N(CCCl)CCCl)cc3)CCC12 (stereo unspecified)

[12.5, 99.9, 86.2]
